// data source = PubChem BioAssay (NCI)

test protocol: NCI Yeast Anticancer Drug Screen. Data for the sgs1 mgt1 strain (AID 161);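 note: 0% = growth of cultures given vehicle only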
assay conditions: S. cerevisiae sgs1 mgt1 strain, at 50.0 µM, stronger effect = higher value
Method: Growth inhibition of yeast strains with defined genetic alterations is measured as a screen for potential anti-cancer activity. Selected strains with alterations in DNA damage repair or cell cycle control were exposed to compounds and growth inhibition was measured relative to vehicle treated controls. The strain used in this assay is sgs1 mgt1
This is part of a sample that, as a whole, favours compounds with a hit. Of some 79,000 tested, about 15% had one in any assay.
measured parameter: growth inhibition (%)
Report only the number, with the unit % understood.

>  <compound>
Cc1ccccc1N=Nc1c(O)n(-c2ccccc2)c(=S)n(-c2ccccc2)c1=O

>  <growth inhibition, %>
28.6

$$$$
>  <compound>
CCCCOB(OCCCC)Oc1c(C(C)(C)C)cc(C)cc1C(C)(C)C

>  <growth inhibition, %>
-2.55

$$$$

Query: Requested read-out: growth inhibition. Entry: CCCS(=O)(=O)CCCCCCCCCCC(=O)O
Response: -7.8

Query: Do the same for CC(=O)NC1C(OCC(=O)NC(C)C(=O)NC(CCC(=O)NCCCCCNc2ccc([N+](=O)[O-])c3[nH]c4ccccc4c(=O)c23)C(N)=O)C(O)C(CO)OC1(C)OCc1ccccc1 (centres undefined) please
Response: 1.05
